EXPERIMENTAL PROTOCOL: yeast display, Sf9 membrane polyspecificity reagent, FACS + sequencing; frameworks hold sequencing errors

RECORD SEQUENCE	polyreactivity (PSR sort gate)
QVQLVESGGGLVQAGGSFRLSCAASGGTVDTYVMGWYRQAPGKERELVAVITRGASTYYADSVKGRFTISRDNAKNTVYLQMNSLKPEDTAVYYCAAACYSPDYYRFWYSFDYWGQGTQVTVSS	low polyreactivity
QVQLEESGGGLVQAGGTLRLSCAASGRIFGWYAMGWYRQPPGKERELVAAISSGGRTNYADSVKGRFTISRDNAKNTVYLQMNSLKPEDTAVYYCNARSTYLPYKFGYDYWGQGTQVTVSS	low polyreactivity
QVQLVESGGGLVQAGGSLRLSCAASGITFNSYAMGWYRQAPGKERELVAAISGSGSSTYYADSVKGRFTISRDNAKNTVYLQMNSLKPEDTAVYYCAATGYSSWTYYTHEYWGQGTQVTVSS	low polyreactivity
QVQLVESGGGLVQAGGSLRLSCAASGFTIGYNVMGWYREAAGKERELVATISWNGARTYYADSVKGRFTISRDNAKNTVYLQMNSLKPEDTAVYYCAARRYYRGEYDYWGQGTQVTVSS	low polyreactivity
QVQLVESGGGLVQAGGSLRLSCAASGLPSKLMHMGWYRQAPGKERELVAAISSSGGRTYYADSVKGRITISRDNAKNTVYLQMNILKPEDTAVYYCAATARYRSYSASYYWGQGTQVTVSS	high polyreactivity
QVQLVESAGGLVQAGGSLRLSCAASGSTFDLYAMGWYRQAPGKEREFVAAISRSGGSTYYADSVKGRFTISRDNAKNTVYLHMNSLKPEDTAVYYSNARWPPGVSRGGMGYWGQGTQVTVST	high polyreactivity
QVQLVESAGGLVQAGGSLRLSCAASGLTFYVNAMGWYRQAPGKERELVAAITWSGGSTHYADSVKGRFTISRDNAKNTVYLQMNSLKPEDTAVYYCARATYQHSYVAYDYWGQGTQVTVSS	low polyreactivity
QEQLVESGGGLVQAGGTLRLSCDASVSTQWYNAMGWYRQAPGKERELVATITAGGGSTYYADSVKGRFTISRDNAKNTVYLQMNSLKREDTAVYYCATRYTPAQLDYWGQGTQVTVSS	low polyreactivity
QVQLVESGGGLVQAGGSLRLSCAASGRTYSYYAMGWYRQAPGKERQLVAAITTRTGSTYYADSVKGRFTISRDNAKNTVYLQMNSLKPEDTAVYYCAAEPRYLRSGKGFDYWGQGTQVTVSS	high polyreactivity
QVQLVESGGGLVQAGGSLRLSCAASGRIFSYNAMGWYRQAPGKERELVAGITSGGRTYYADSVKGRFTISRDNAKNTVYLQMNSLKPEDTAVHYCAASYVPARTRYYYWGQGTQVTVSS	high polyreactivity
QVQLVESGGGLVQAGGSLRLSCAASGSTFLHYAMGWYRQAPGKEREFTYYADSVKGRFTISRDNAKNTVYLHMNSLNPEDTAVYYCNAGPYWSPYGDDFGYWGQGTQVTVSS	low polyreactivity
QVQLVESGGGLVQAGGSLRLSCAASGFTFNNNAMGWYRQAPGKERELVAAISSSGGNTYYADSVKGRFTISRDNAKNTVYLQMNSLKPEDTAVYYCNAGKRQRGEYWGQGTQVTVSS	high polyreactivity
QVQLEESGAGLVQAGGSLRLSCAASGRIFTVYAMGWYRHAPGKEREFVAAIRSSGGRTYYADSVKGRFTISRDNEKNTVYLQMNSLNPEDTAVYYCAASVTGPSGADYYYWGQGTQVTVSS	high polyreactivity
QVQLVESGGGLVQAGGSLRFSCAASGSIFDSYAMGWYRHAPGKERELVAAITWSGGITFYADSVKGRYTISRDNAKNTVYLQMNSLKPEDTAVYYCATARSYVGVGGTFVGLYDYWGQGTQVTVSS	low polyreactivity
QVQLVESGGGLVQAGGSLRLSCAASGSLFYFYAMGWYRQAPGKERELVAAISSGGSTYYADSVKGRFTISRDNAKNTVYLQMNSLKPEDTEVYYCAADSLYYRYDYWGQGTQVTVSS	low polyreactivity
QVQLVEAGGGLVQAGGSLRLSCAASGSTFYKNAMGWYRPAAGKERELVAGISRRGGPTYYADSVKGRFTISRDKAMNTVYLQMNSLNPEDTAVYYCNTGHEEDEYDYWGQGTQVTVSS	low polyreactivity
QVQLVESGGGLVQAGGSLRLICAASGRTFILYTMGWYRQAPGKERELVAAITTGGSTSYADSVKGRFTISRDNAKNTVYLQMNSLKPEDTAVYNWAADTVGYSWRWFTWYEMGYWGQGTQVTVSS	low polyreactivity
QVQLVESGGGLVQAGGSLRISCAASGRIFARNAMGSYRQAPGKERELVATIRVGGGSTYYADSVTGRFTISRDNAKNTVYLQMNSLKPEDTSVYYCAVRQLYSYPGDRRGYYWGQGTQVTVSS	low polyreactivity
QVQLVESGGGLVQAGGSLRLSCAASGFIFYYYAMGWYRQAPGKERELVAAINRRGGSTYYADSVKGRFTISRDNAKNTVYLQMNSLKPEDTAVYYCAATYDGTFDYWGQGTQVTVSS	high polyreactivity
QVQLVESGGGLVQAGGSLRLSCAASGFISFDKAMGWYRQAPGKERELVAAIRSGGSTNYADSVKGLFTISRDNAKNTVYLQMNSLKPEDTAVYYCATDGSLRARSTSGWEYTNGDYWGQGTQVTVSS	low polyreactivity
QVQLVESGGGLVQAGGSLRLSCAASGYTFGSYAMGWYRQAPGKERELVAAIRGSGGSTYYADSVKGRFTISRDNAKNTVYLQMNSLKPEDTAVYYCATSVRRGGRQLYNYWGQGTQVTVSS	high polyreactivity

The measured values listed here are drawn from the nanobody polyreactivity screen of Harvey et al. (2022).
